The measurements presented in this section are drawn from patent US20190062438A1.

assayed_target: T1, human CD131 (human, UniProt P32927 17-897)
T1 sequence: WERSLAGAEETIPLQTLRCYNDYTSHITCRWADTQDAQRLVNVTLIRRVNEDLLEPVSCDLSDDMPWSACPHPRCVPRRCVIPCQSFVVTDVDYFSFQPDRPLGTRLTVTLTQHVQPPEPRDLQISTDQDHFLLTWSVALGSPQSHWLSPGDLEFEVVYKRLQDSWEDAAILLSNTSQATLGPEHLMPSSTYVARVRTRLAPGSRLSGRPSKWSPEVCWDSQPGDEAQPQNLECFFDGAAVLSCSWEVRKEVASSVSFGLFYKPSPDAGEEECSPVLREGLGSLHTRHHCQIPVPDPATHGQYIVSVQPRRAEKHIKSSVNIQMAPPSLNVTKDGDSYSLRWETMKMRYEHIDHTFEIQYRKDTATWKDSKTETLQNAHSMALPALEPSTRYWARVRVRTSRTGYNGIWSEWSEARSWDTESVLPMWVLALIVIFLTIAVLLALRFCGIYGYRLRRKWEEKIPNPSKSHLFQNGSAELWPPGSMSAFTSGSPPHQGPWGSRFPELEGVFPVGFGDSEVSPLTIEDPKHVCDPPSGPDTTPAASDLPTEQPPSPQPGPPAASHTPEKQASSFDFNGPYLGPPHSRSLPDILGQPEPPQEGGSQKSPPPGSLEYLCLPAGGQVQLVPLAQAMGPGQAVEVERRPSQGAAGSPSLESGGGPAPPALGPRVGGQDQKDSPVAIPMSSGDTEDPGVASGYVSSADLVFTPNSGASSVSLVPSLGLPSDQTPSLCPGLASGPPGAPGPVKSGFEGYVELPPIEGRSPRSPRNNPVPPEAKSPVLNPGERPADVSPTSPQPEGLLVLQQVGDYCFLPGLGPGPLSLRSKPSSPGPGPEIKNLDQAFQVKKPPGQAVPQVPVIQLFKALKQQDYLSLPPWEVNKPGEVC
experiment: cell-based or functional assay
In this section, each of the binders is paired with its reported IC50 GM-CSF, TF-1 proliferation.
measured_endpoint: IC50 GM-CSF, TF-1 proliferation (nM)

INSERT INTO measurements (binder, measured_endpoint, numeric_value) VALUES
  ('9A2-VR24.122 (antibody, V domains shown) VH: EVQLLESGGGLVQPGGSLRLSCAASGFTFPWYRVHWVRQAPGKGLEWVSSIRSSGGFTYYNSEVKGRFTISRDNSKNTLYLQMNSLRAEDTAVYYCARFYDSFFDIWGQGTMVTVSS VL: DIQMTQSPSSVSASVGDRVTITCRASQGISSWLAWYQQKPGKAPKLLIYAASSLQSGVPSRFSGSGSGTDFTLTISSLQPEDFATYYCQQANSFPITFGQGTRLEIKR', 'IC50 GM-CSF, TF-1 proliferation', 0.66),
  ('9A2-VR24.29 (antibody, V domains shown, IgG4pK; also called 9A2-VR24.29 IgG) VH: EVQLLESGGGLVQPGGSLRLSCAASGFTFPWYRVHWVRQAPGKGLEWVSSIRSSGGFPYYNYKVKGRFTISRDNSKNTLYLQMNSLRAEDTAVYYCARFYDSFFDIWGQGTMVTVSS VL: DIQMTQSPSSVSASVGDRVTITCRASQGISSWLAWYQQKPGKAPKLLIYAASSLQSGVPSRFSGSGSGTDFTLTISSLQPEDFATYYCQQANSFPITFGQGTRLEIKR', 'IC50 GM-CSF, TF-1 proliferation', 0.29),
  ('9A2-VR24.102 (antibody, V domains shown) VH: EVQLLESGGGLVQPGGSLRLSCAASGFTFPWYRVHWVRQAPGKGLEWVSSIRSSGGFPFYNSSVKGRFTISRDNSKNTLYLQMNSLRAEDTAVYYCARFYDSFFDIWGQGTMVTVSS VL: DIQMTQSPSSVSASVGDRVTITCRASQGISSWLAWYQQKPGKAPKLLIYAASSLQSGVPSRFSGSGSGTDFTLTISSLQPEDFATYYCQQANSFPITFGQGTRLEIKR', 'IC50 GM-CSF, TF-1 proliferation', 0.32);
